// values below are reported MIC
system: Klebsiella pneumoniae; assay: Checkerboard synergy (FICI) of antibiotics with SP-BIM; format: cell-based; conditions: 24 h, antibiotic alone, SP-BIM 13 checkerboard, read-out: MIC antibiotic only
Give the quantity in µg/mL, number only.

CC[C@H]1OC(=O)[C@H](C)[C@@H](O[C@H]2C[C@@](C)(OC)[C@@H](O)[C@H](C)O2)[C@H](C)[C@@H](O[C@@H]2O[C@H](C)C[C@H](N(C)C)[C@H]2O)[C@](C)(O)C[C@@H](C)C(=O)[C@H](C)[C@@H](O)[C@]1(C)O: 16
[H]/N=C(/N)N[C@H]1[C@H](O)[C@@H](O)[C@H](O[C@@H]2O[C@@H](C)[C@](O)(C=O)[C@H]2O[C@@H]2O[C@@H](CO)[C@H](O)[C@@H](O)[C@@H]2NC)[C@@H](N/C(N)=N\[H])[C@@H]1O: 125

Annotate the compound `O=C(O)c1cn(C2CC2)c2cc(N3CCNCC3)c(F)cc2c1=O` with its measured MIC.
2

Annotate the compound `CC1(C)S[C@@H]2[C@H](NC(=O)[C@H](N)c3ccccc3)C(=O)N2[C@H]1C(=O)O` with its measured MIC.
250

Annotate the compound `COc1cc(Cc2cnc(N)nc2N)cc(OC)c1OC` with its measured MIC.
8

Annotate the compound `C[C@H]1c2cccc(O)c2C(=O)C2=C(O)[C@]3(O)C(=O)C(C(N)=O)=C(O)[C@@H](N(C)C)[C@@H]3[C@@H](O)[C@@H]21` with its measured MIC.
16
